The origin of these recorded values is patent US8993616B2.

biological target: Xanthine oxidase (from bovine milk, Sigma) (Bos taurus (Bovine), UniProt P80457)
Sequence (P80457 whole entry): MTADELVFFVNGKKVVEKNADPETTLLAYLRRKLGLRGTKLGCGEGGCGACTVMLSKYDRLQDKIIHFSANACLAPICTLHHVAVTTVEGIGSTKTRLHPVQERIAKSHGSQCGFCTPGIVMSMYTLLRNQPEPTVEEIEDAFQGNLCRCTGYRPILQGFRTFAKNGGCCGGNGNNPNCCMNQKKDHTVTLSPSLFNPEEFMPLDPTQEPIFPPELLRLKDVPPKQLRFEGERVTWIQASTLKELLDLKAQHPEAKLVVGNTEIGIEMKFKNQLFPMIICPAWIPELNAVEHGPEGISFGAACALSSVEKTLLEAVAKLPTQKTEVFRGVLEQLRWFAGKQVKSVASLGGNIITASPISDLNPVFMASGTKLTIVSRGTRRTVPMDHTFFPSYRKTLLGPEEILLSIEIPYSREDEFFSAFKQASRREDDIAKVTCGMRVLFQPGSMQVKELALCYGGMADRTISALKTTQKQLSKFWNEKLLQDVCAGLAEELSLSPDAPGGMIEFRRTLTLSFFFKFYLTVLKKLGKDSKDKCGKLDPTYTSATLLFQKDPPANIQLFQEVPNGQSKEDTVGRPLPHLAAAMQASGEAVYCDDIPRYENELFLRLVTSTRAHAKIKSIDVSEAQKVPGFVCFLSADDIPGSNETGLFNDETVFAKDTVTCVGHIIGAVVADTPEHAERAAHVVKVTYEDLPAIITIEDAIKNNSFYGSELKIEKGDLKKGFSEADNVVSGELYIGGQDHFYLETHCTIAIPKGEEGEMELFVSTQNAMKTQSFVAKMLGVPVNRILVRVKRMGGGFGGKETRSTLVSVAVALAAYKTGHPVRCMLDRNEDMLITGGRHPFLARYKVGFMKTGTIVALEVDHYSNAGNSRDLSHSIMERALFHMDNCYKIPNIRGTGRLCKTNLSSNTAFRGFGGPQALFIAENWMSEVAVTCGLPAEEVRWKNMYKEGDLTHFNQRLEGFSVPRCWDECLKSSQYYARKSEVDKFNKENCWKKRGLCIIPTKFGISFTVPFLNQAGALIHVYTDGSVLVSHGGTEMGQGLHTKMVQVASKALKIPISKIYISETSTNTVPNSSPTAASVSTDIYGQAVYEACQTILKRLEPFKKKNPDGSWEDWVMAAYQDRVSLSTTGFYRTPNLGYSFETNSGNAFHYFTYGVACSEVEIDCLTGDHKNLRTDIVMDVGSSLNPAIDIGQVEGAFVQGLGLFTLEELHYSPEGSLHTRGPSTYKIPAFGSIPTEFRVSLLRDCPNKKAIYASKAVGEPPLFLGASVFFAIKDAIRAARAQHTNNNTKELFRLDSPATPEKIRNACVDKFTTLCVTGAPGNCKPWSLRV
ENDPOINT: pIC50
Worth noting: pIC50 values are minus log10 of concentrations stated in mol/L.

Cc1nc(-n2cc(C#N)c3ccccc32)sc1C(=O)O [Example 47]: 7.23
N#Cc1cn(-c2ccc(C(=O)O)cc2)c2ccc(O)cc12 [Example 152]: 7.80

Record CCOc1ccc2c(C#N)cn(-c3ccc(C(=O)O)c(O)c3)c2c1 [Example 223] ; system Xanthine oxidase (from bovine milk, Sigma) (Bos taurus (Bovine), UniProt P80457); pIC50 = 8.12

Record CCOCCOc1ccc2c(c1)c(C#N)cn2-c1ccc(C(=O)O)cc1 [Example 174] ; system Xanthine oxidase (from bovine milk, Sigma) (Bos taurus (Bovine), UniProt P80457); pIC50 = 7.61

Record N#Cc1cn(-c2ccc(C(=O)O)c(O)c2)c2cc(OCc3ccccc3Cl)ccc12 [Example 230] ; system Xanthine oxidase (from bovine milk, Sigma) (Bos taurus (Bovine), UniProt P80457); pIC50 = 7.17

Record N#Cc1cn(-c2ccc(C(=O)O)cc2)c2cccc(-c3ccccc3)c12 [Example 286] ; system Xanthine oxidase (from bovine milk, Sigma) (Bos taurus (Bovine), UniProt P80457); pIC50 = 7.24

Record Cc1cc2c(C#N)cn(-c3ccc(C(=O)O)c(O)c3)c2cc1F [Example 316] ; system Xanthine oxidase (from bovine milk, Sigma) (Bos taurus (Bovine), UniProt P80457); pIC50 = 8.00

Record N#Cc1cn(-c2ccc(C(=O)O)c(O)c2)c2cc(OCC3CC3)ccc12 [Example 233] ; system Xanthine oxidase (from bovine milk, Sigma) (Bos taurus (Bovine), UniProt P80457); pIC50 = 8.14

Record COc1ccccc1-c1ccc2c(c1)c(C#N)cn2-c1ccc(C(=O)O)cc1 [Example 157] ; system Xanthine oxidase (from bovine milk, Sigma) (Bos taurus (Bovine), UniProt P80457); pIC50 = 7.85

----------
These molecules were tested on Xanthine oxidase (from bovine milk, Sigma) (Bos taurus (Bovine), UniProt P80457); IC50 is the recorded read-out.
Give the value, in units of nM, as a plain number.

# annotated cases, reported IC50 shown
N#Cc1cn(-c2ccc(C(=O)O)c(O)c2)c2cc3c(cc12)OCO3 [Example 194]: 8.3
COCCOc1ccc2c(c1)c(C#N)cn2-c1ccc(C(=O)O)c(O)c1 [Example 211]: 6.2

Moving on to another molecule below.
Record N#Cc1cn(-c2ccc(C(=O)O)c(O)c2)c2cc(C(F)(F)F)ccc12 [Example 195] ; system Xanthine oxidase (from bovine milk, Sigma) (Bos taurus (Bovine), UniProt P80457); IC50 = 14.5
